Test system: VA-ES-BJ
test details: relative viability vs DMSO control (72 h) (fraction); higher = more viable cells
run parameters: 10 µM
recorded endpoint: relative viability
Please respond with just the number, no unit label.

INPUT: Param item = N#CCC1(n2cc(-c3ncnc4[nH]ccc34)cn2)CN(C2CCN(C(=O)c3ccnc(C(F)(F)F)c3F)CC2)C1 [Itacitinib] ; retrieve measured relative viability.
OUTPUT: 0.859

INPUT: Also Cc1cc(Nc2ncc(Cl)c(Nc3ccccc3S(=O)(=O)C(C)C)n2)c(OC(C)C)cc1C1CCNCC1 [Ceritinib] , if possible.
OUTPUT: -0.008

INPUT: Please answer likewise for COc1cc2c(Oc3ccc4[nH]c(C)cc4c3F)ccnc2cc1OCC1(N)CC1 [Anlotinib]
OUTPUT: 0.505

INPUT: // repeat for CCCCCCCCCCCCCCCCCCOP(=O)([O-])OC1CC[N+](C)(C)CC1 [Perifosine] and report
OUTPUT: 0.255

INPUT: And for COc1cc2nccc(Oc3ccc(NC(=O)NC4CC4)c(Cl)c3)c2cc1C(N)=O [Lenvatinib] ?
OUTPUT: 1.04

INPUT: Would you mind doing C#Cc1cccc(Nc2ncnc3cc(OCCOC)c(OCCOC)cc23)c1 [Erlotinib] as well?
OUTPUT: 0.642

INPUT: What would you report for C=CC(=O)Nc1cccc(Nc2nc(Nc3ccc(N4CCN(C(C)=O)CC4)cc3OC)ncc2C(F)(F)F)c1 [Rociletinib] ?
OUTPUT: 0.399

INPUT: Param item: NC(=O)c1cnc2[nH]ccc2c1N[C@@H]1[C@@H]2CC3C[C@H]1C[C@@](O)(C3)C2 [Peficitinib]
OUTPUT: 0.887

###

Tested on: VA-ES-BJ
test details: relative viability vs DMSO control (72 h) (fraction); higher = more viable cells
run parameters: 0.04115 µM
Reported relative viability values for the following compounds.
Simply state the number, no unit and no words.

Previously resolved entries follow.
Cc1c(F)cc(C(=O)NC2CC2)cc1-c1ccc(C(=O)NCC(C)(C)C)cn1 1.06
N#Cc1ccnc(N2C(=O)CC[C@H]2C(=O)N(c2cncc(F)c2)[C@H](C(=O)NC2CC(F)(F)C2)c2ccccc2Cl)c1 1.02
CCN(c1cc(-c2ccc(CN3CCOCC3)cc2)cc(C(=O)NCc2c(C)cc(C)[nH]c2=O)c1C)C1CCOCC1 1.06

INPUT: Could you share which relative viability value was measured for CNC(=O)c1cc(Oc2ccc(NC(=O)Nc3ccc(Cl)c(C(F)(F)F)c3)cc2)ccn1 ?
OUTPUT: 1.09

###

Tested on: SK-LMS-1
test details: relative viability vs DMSO control (72 h) (fraction); higher = more viable cells
run parameters: 0.00152 µM
This listing pairs compounds with measured relative viability.
Answer using only a numeral; do not append any unit.

compound	relative viability
C#Cc1cccc(Nc2ncnc3cc(OCCOC)c(OCCOC)cc23)c1 [Erlotinib]	1.09

INPUT: Form field: reported relative viability of Cc1ccc(C(=O)OCc2ccc([C@@H](CN)C(=O)Nc3ccc4cnccc4c3)cc2)c(C)c1 [Netarsudil]
OUTPUT: 1.02

INPUT: And CCCS(=O)(=O)N[C@H]1C[C@@H](N(C)c2ncnc3[nH]ccc23)C1 [Abrocitinib] ?
OUTPUT: 1.01

INPUT: Entry to check: C[C@H]1Oc2cc(cnc2N)-c2c(nn(C)c2C#N)CN(C)C(=O)c2ccc(F)cc21 [Lorlatinib]
OUTPUT: 1.08

INPUT: Proceed to COc1cc2nccc(Oc3ccc(NC(=O)C4(C(=O)Nc5ccc(F)cc5)CC4)cc3)c2cc1OC [Cabozantinib]
OUTPUT: 1.13

###

Test system: SW684
test details: standardised AUC of viability dose-response curve (72 h) (fraction (0-1)); higher = less growth inhibition (more resistant)
recorded endpoint: standardised AUC
// return just the number, without any unit appended

As a guide, the following entries are already answered.
C[C@@H]1COC(Nc2ccc3ncnc(Nc4ccc(OCc5nccs5)c(Cl)c4)c3c2)=N1 0.994
COc1cc(OC)cc(N(CCNC(C)C)c2ccc3ncc(-c4cnn(C)c4)nc3c2)c1 0.924
COc1cc2ncnc(Nc3cccc(Cl)c3F)c2cc1OC(=O)N1CCN(C)C[C@H]1C 0.978
CN1CCN(CCOc2cc(OC3CCOCC3)c3c(Nc4c(Cl)ccc5c4OCO5)ncnc3c2)CC1 0.977
C[C@@H](Oc1cc(-c2cnn(C3CCNCC3)c2)cnc1N)c1c(Cl)ccc(F)c1Cl 0.901
COc1cc2c(Oc3ccc4[nH]c(C)cc4c3F)ccnc2cc1OCC1(N)CC1 0.944

INPUT: # get_value(readout='standardised AUC', item= Cc1ccc(NC(=O)c2ccc(CN3CCN(C)CC3)cc2)cc1Nc1nccc(-c2cccnc2)n1 )
OUTPUT: 0.983

INPUT: Try this compound too: C#Cc1cccc(Nc2ncnc3cc(OCCOC)c(OCCOC)cc23)c1
OUTPUT: 0.992

###

Tested on: RD-ES
test details: relative viability vs DMSO control (72 h) (fraction); higher = more viable cells
run parameters: 0.00457 µM
The entries below come with measured relative viability values attached.
Write no unit; give the number alone.

Known results for compounds:
C1=N/C2=N/c3ccc(OCCN4CCCC4)c(c3)COC/C=C/COCc3cccc(c3)C(=C1)N2 1.01
Cc1ccc(NC(=O)c2ccc(CN3CCN(C)CC3)cc2)cc1Nc1nccc(-c2cccnc2)n1 0.952
COc1cc2nccc(Oc3ccc(NC(=O)NC4CC4)c(Cl)c3)c2cc1C(N)=O 0.961
COc1cc2ncnc(Nc3cccc(Cl)c3F)c2cc1OC(=O)N1CCN(C)C[C@H]1C 0.977

INPUT: Which measured relative viability value corresponds to Cc1cccc(-c2[nH]c(CNc3ccccc3F)nc2-c2ccc3ncnn3c2)n1 ?
OUTPUT: 0.958

INPUT: C#Cc1cccc(Nc2ncnc3cc(OCCOC)c(OCCOC)cc23)c1 , same question.
OUTPUT: 0.992

INPUT: Could you do the same for CCCS(=O)(=O)N[C@H]1C[C@@H](N(C)c2ncnc3[nH]ccc23)C1 , please?
OUTPUT: 0.993

INPUT: Repeat for the following compound: CCCCCCCCCCCCCCCCCCOP(=O)([O-])OC1CC[N+](C)(C)CC1
OUTPUT: 1

INPUT: // next record N#Cc1ccnc(N2C(=O)CC[C@H]2C(=O)N(c2cncc(F)c2)[C@H](C(=O)NC2CC(F)(F)C2)c2ccccc2Cl)c1
OUTPUT: 0.977

INPUT: For C=CC(=O)Nc1cc(Nc2nccc(-c3cn(C)c4ccccc34)n2)c(OC)cc1N(C)CCN(C)C then?
OUTPUT: 0.971

###

Test system: KHOS-240S
test details: relative viability vs DMSO control (72 h) (fraction); higher = more viable cells
run parameters: 0.00152 µM
recorded endpoint: relative viability
Give the value as a plain number.

Worked set:
compound	system	relative viability
Cc1ccc(NC(=O)c2ccc(CN3CCN(C)CC3)cc2)cc1Nc1nccc(-c2cccnc2)n1	KHOS-240S	0.975
N#Cc1ccnc(N2C(=O)CC[C@H]2C(=O)N(c2cncc(F)c2)[C@H](C(=O)NC2CC(F)(F)C2)c2ccccc2Cl)c1	KHOS-240S	1.04
C#Cc1cccc(Nc2ncnc3cc(OCCOC)c(OCCOC)cc23)c1	KHOS-240S	1.05
C[C@H]1Oc2cc(cnc2N)-c2c(nn(C)c2C#N)CN(C)C(=O)c2ccc(F)cc21	KHOS-240S	1.07

INPUT: What does the record list as relative viability for Cc1c(F)cc(C(=O)NC2CC2)cc1-c1ccc(C(=O)NCC(C)(C)C)cn1 ?
OUTPUT: 1.07

INPUT: Try the compound COc1cc2nccc(Oc3ccc(NC(=O)NC4CC4)c(Cl)c3)c2cc1C(N)=O
OUTPUT: 1.03

INPUT: Continue with COc1cc2nccc(Oc3ccc(NC(=O)C4(C(=O)Nc5ccc(F)cc5)CC4)cc3)c2cc1OC [Cabozantinib]
OUTPUT: 1.08

INPUT: Param item: CN(C)C[C@@H]1CCn2cc(c3ccccc32)C2=C(C(=O)NC2=O)c2cn(c3ccccc23)CCO1
OUTPUT: 1.03

###

The following compounds are shown together with reported relative viability values.
System: SW982
test details: relative viability vs DMSO control (72 h) (fraction); higher = more viable cells
run parameters: 0.00051 µM
Provide a numeric answer; units are not to be included.

Record excerpt, results attached:
compound	result
COc1cc2nccc(Oc3ccc(NC(=O)C4(C(=O)Nc5ccc(F)cc5)CC4)cc3)c2cc1OC [Cabozantinib]	1.01
CCCCCCCCCCCCCCCCCCOP(=O)([O-])OC1CC[N+](C)(C)CC1 [Perifosine]	1.04
Cc1cn(-c2cc(NC(=O)c3ccc(C)c(Nc4nccc(-c5cnccn5)n4)c3)cc(C(F)(F)F)c2)cn1 [Radotinib]	1.07

INPUT: Please provide the recorded relative viability for Cc1cccc(-c2[nH]c(CNc3ccccc3F)nc2-c2ccc3ncnn3c2)n1 [Vactosertib] , tested on SW982.
OUTPUT: 1.02

INPUT: Likewise for CN(C)C[C@@H]1CCn2cc(c3ccccc32)C2=C(C(=O)NC2=O)c2cn(c3ccccc23)CCO1 [Ruboxistaurin] ?
OUTPUT: 1.03
